Where do these numbers come from? They come from ChEMBL document CHEMBL3797064.

Attribute: IC50
Study Target: Amine oxidase [flavin-containing] B (Homo sapiens, UniProt P27338)
Sequence (P27338 whole entry): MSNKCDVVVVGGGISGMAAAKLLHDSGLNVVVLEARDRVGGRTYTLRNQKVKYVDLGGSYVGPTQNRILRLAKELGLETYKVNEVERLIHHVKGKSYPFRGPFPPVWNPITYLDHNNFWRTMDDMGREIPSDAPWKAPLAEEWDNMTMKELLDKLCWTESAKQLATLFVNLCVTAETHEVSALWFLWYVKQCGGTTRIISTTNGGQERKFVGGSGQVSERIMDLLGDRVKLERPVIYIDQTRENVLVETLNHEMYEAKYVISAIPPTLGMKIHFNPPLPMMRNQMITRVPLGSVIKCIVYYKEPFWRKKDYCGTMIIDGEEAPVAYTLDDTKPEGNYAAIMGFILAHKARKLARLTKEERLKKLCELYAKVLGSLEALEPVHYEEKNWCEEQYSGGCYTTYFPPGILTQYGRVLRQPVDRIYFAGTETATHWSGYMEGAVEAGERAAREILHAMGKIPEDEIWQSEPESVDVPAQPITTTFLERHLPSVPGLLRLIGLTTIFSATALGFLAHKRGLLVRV
Measurement Protocol: Inhibition of human recombinant MAO-B using kynuramine as substrate incubated for 20 mins by fluorescence spectrophotometric analysis
Unit µM implied. Number only.

Here is how some compounds turned out for IC50.
COn1c(-c2cccs2)cc2cc3c(cc21)C(=O)NC3=O	3.75
CC(=O)On1c(-c2cccs2)cc2cc(C#N)c(C#N)cc21	1.94
O=C(O)c1cc2cc(-c3ccccc3)n(O)c2cc1C(=O)O	56.2
Cc1ccc(C(=O)Cc2cc3c(cc2[N+](=O)[O-])C(=O)NC3=O)cc1	0.923
Cc1ccc(-c2cc3cc(C#N)c(C#N)cc3n2O)cc1	0.821
O=C1NC(=O)c2cc3c(cc21)cc(-c1ccccc1)n3O	83.1

*Q* Give IC50 for `COn1c(-c2ccc(C)cc2)cc2cc3c(cc21)C(=O)NC3=O` tested on Amine oxidase [flavin-containing] B (Homo sapiens, UniProt P27338).
*A* 0.581

*Q* Give IC50 for `N#Cc1cc2cc(-c3ccccc3)n(O)c2cc1C#N` tested on Amine oxidase [flavin-containing] B (Homo sapiens, UniProt P27338).
*A* 10.3

*Q* Give IC50 for `O=C(Cc1cc2c(cc1[N+](=O)[O-])C(=O)NC2=O)c1ccccc1` tested on Amine oxidase [flavin-containing] B (Homo sapiens, UniProt P27338).
*A* 6.79

*Q* Give IC50 for `COn1c(-c2ccc(C)cc2)c(Br)c2cc(C#N)c(C#N)cc21` tested on Amine oxidase [flavin-containing] B (Homo sapiens, UniProt P27338).
*A* 7.46

*Q* Give IC50 for `COn1c(-c2ccc(C)cc2)c(C=O)c2cc(C#N)c(C#N)cc21` tested on Amine oxidase [flavin-containing] B (Homo sapiens, UniProt P27338).
*A* 74.8

*Q* Give IC50 for `COc1ccc(-c2cc3cc(C#N)c(C#N)cc3n2O)cc1` tested on Amine oxidase [flavin-containing] B (Homo sapiens, UniProt P27338).
*A* 1.79

*Q* Give IC50 for `COc1ccc(C(=O)Cc2cc3c(cc2[N+](=O)[O-])C(=O)NC3=O)cc1` tested on Amine oxidase [flavin-containing] B (Homo sapiens, UniProt P27338).
*A* 1.21

*Q* Give IC50 for `Cc1ccc(-c2cc3cc4c(cc3n2O)C(=O)NC4=O)cc1` tested on Amine oxidase [flavin-containing] B (Homo sapiens, UniProt P27338).
*A* 8.09

###

Organism: Homo sapiens
Measurement Protocol: Selectivity index, ratio of IC50 for human recombinant MAO-B to IC50 for human recombinant MAO-A
Property Measured: Ratio IC50
Answer with the value's number alone.

Here is how some molecules turned out for Ratio IC50.
Cc1ccc(C(=O)Cc2cc3c(cc2[N+](=O)[O-])C(=O)NC3=O)cc1	0.44
COc1ccc(C(=O)Cc2cc3c(cc2[N+](=O)[O-])C(=O)NC3=O)cc1	1.8

*Q* Supply measured Ratio IC50 of `COn1c(-c2ccc(C)cc2)c(C=O)c2cc(C#N)c(C#N)cc21` in your reply.
*A* 185

###

Attribute: Ratio IC50
Species on record: Homo sapiens
Measurement Protocol: Selectivity index, ratio of IC50 for human recombinant MAO-B to IC50 for human recombinant MAO-A

Here is how some compounds turned out for Ratio IC50.
COn1c(-c2ccc(C)cc2)c(CO)c2cc(C#N)c(C#N)cc21	> 20
COn1c(-c2ccccc2)cc2cc3c(cc21)C(=O)N(C)C3=O	> 81
COc1ccc(-c2cc3cc(C#N)c(C#N)cc3n2O)cc1	0.97
Cc1ccc(-c2cc3cc(C#N)c(C#N)cc3n2O)cc1	0.72

*Q* Supply measured Ratio IC50 of `COn1c(-c2ccccc2)c(CO)c2cc(C#N)c(C#N)cc21` in your reply.
*A* > 20

*Q* Supply measured Ratio IC50 of `COn1c(-c2ccccc2)c(C=O)c2cc(C#N)c(C#N)cc21` in your reply.
*A* > 192

*Q* Supply measured Ratio IC50 of `O=C(Cc1cc2c(cc1[N+](=O)[O-])C(=O)NC2=O)c1ccccc1` in your reply.
*A* 1.3

*Q* Supply measured Ratio IC50 of `N#Cc1cc2cc(-c3cccs3)n(O)c2cc1C#N` in your reply.
*A* > 9
